- TEST NAME: GST conjugation activity with ethacrynic acid (HPLC)
- Format: biochemical
- CONDITION SET: 0.4 mM electrophilic substrate, 4 mM glutathione, 0.1 M MOPS pH 7.0, corrected for uncatalyzed reaction
OBSERVED PROPERTY: Activity of soybean GST enzyme, Ethacrynic Acid (nmol/min/mg)
# number only, unit nmol/min/mg dropped from output

[[record]]
molecule = "se1.27b04: soybean type I GST encoded by cDNA insert in clone se1.27b04 (protein) MICLHEKEVDFELVPVNVFAAEHKQPPFLSKNPFGFIPVLEDGDLTLFESRAITAYVAEKFKETEPDLIRHKDAKEAALVKVWTEVESHYYEPAVSPIIYEYFVAPFQGKEPDKSVIDTNVEKLKTVLDVYEAKLSSTKYLAGDFYSLADLSHVSETHYLMQTPCASMINELPHVKAWWEDISSRPAFNKVVGGMSFGQNH"
unit_string = "nmol/min/mg"
observed_measurement = 11


Alright, here's another molecule for you.
[in] Record request: Activity of soybean GST enzyme, Ethacrynic Acid value, item ssl.pk0005.e6: soybean type III GST encoded by cDNA insert in clone ss1.pk0005.e6 (protein) MTDEVVLLDFWPSPFGMRVRIALAEKGIEYEYKEEDLRNKSPLLLQMNPVHKKIPVLIHNGKPISESLIAVQYIEEVWNDRNPLLPSDPYQRAQARFWADYVDIKIHDLGKKIWTSKGEEKEAAKKEFIEALKLLEEQLGDKTYFGGDNIGFVDIALVPFYTWFKVYETFGSLNIENECPRFVAWAKRCLQKESVAKSLPDQHKVYEFVVEIRKKLVIE
[out] 11
